Values were extracted from the RNAGym collection of RNA variant scans (doi:10.7554/elife.80360).

B1: Hairpin Ribozyme (parent)
chain: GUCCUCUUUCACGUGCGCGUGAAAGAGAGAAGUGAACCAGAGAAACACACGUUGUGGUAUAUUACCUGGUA

Variants of: B1
Test: self-cleavage, relative activity (ratio to wild type); higher = more cleavage; co-transcriptional
assay-metric: self-cleavage
Hey, just send me the number, nothing else.

# count of solved cases: 10
variant-string | assay-metric | test-result
U5G G54A | self-cleavage | 0.204
C12U A49U | self-cleavage | 0.159
U52C G69A | self-cleavage | 0.416
U9A U60A | self-cleavage | 0.483
A28C | self-cleavage | 0.497
U14G G27U | self-cleavage | 0.144
A11C C38G | self-cleavage | 0.0848
C18G G21A | self-cleavage | 0.767
C4U U60C | self-cleavage | 0.48
A49U A59U | self-cleavage | 0.178

Reported self-cleavage, variant C10U A47C : ____ 0.257

Reported self-cleavage, variant A28U A41U : ____ 1.31

Reported self-cleavage, variant A49G G56A : ____ 0.204

Reported self-cleavage, variant U5A U53A : ____ 0.221

Reported self-cleavage, variant A11G U67C : ____ 0.214

Reported self-cleavage, variant U8C C65U : ____ 0.166

Reported self-cleavage, variant G25C G29U : ____ 0.188

Reported self-cleavage, variant G56A G68C : ____ 0.0908

Reported self-cleavage, variant C6U U33G : ____ 0.126

Reported self-cleavage, variant U2A A39G : ____ 0.0775

Reported self-cleavage, variant U9A A23G : ____ 0.559
